The reported numbers originate from paper PMC9667936.

Attribute: ΔG
Biological target: 14-3-3γ (Homo sapiens, UniProt P61981)
Construct: made in house; host or cells: E. coli NiCo21 (DE3)
Sequence (P61981 whole entry): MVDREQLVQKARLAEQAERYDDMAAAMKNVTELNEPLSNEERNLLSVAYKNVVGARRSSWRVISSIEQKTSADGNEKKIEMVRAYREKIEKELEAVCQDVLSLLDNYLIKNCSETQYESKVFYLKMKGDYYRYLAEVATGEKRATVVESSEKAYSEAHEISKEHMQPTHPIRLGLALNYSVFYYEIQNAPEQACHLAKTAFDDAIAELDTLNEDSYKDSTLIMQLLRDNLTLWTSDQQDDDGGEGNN
Test: Fluorescence anisotropy (FA) binary binding study: 14-3-3 titrated to fluorescein-labelled peptide
Settings: Table S4; from FA Kd; replicate 1
Where a SMILES comes first, the peptide text is derived from it. [ ]: non-standard residue; d: D form. ξ: configuration not given here. Phe(4-NO2) = N[C@@H](Cc1ccc([N+](=O)[O-])cc1)C(=O)O; ξAla(4-thiazolyl) = NC(Cc1cscn1)C(=O)O; pS = N[C@@H](COP(=O)(O)O)C(=O)O; β3hS = N[C@@H](CO)CC(=O)O; Nva = CCC[C@H](N)C(=O)O; βAla = NCCC(=O)O
Reply numerically in kcal/mol, unit not repeated.

Some solved entries appear below for comparison.
For the compound shown here, CCC[C@H](NC(=O)[C@H](N)CCCCN)C(=O)N[C@@H](Cc1ccc([N+](=O)[O-])cc1)C(=O)N[C@@H](C)C(=O)N[C@@H](COP(=O)(O)O)C(=O)N[C@@H](Cc1ccc([N+](=O)[O-])cc1)C(=O)N[C@@H](CO)CC(=O)NCCC(=O)N[C@@H](Cc1ccc([N+](=O)[O-])cc1)C(=O)N[C@@H](CCCCN)C(N)=O [3a] (H-[dK][Nva][Phe(4-NO2)]A[pS][Phe(4-NO2)][β3hS][βAla][Phe(4-NO2)]K-NH2; N-terminus and C-terminus assumed) , give the reported ΔG.
-9.5

Which measured ΔG value corresponds to CCC[C@H](NC(=O)[C@H](N)CCCCN)C(=O)N[C@@H](Cc1ccc([N+](=O)[O-])cc1)C(=O)NC(Cc1cscn1)C(=O)N[C@@H](COP(=O)(O)O)C(=O)N[C@@H](Cc1ccccc1)C(=O)N[C@@H](CO)CC(=O)NCCC(=O)N[C@@H](Cc1ccc([N+](=O)[O-])cc1)C(=O)N[C@@H](CCCCN)C(N)=O (stereo partly drawn) [4b] (H-[dK][Nva][Phe(4-NO2)][ξAla(4-thiazolyl)][pS]F[β3hS][βAla][Phe(4-NO2)]K-NH2; N-terminus and C-terminus assumed) ?
-10.0

New cases:
Data request, read-out ΔG, for CCC[C@H](NC(=O)[C@H](N)CCCCN)C(=O)N[C@@H](Cc1ccc([N+](=O)[O-])cc1)C(=O)NC(Cc1cscn1)C(=O)N[C@@H](COP(=O)(O)O)C(=O)N[C@@H](C)C(=O)N[C@@H](CO)CC(=O)NCCC(=O)N[C@@H](Cc1ccc([N+](=O)[O-])cc1)C(=O)N[C@@H](CCCCN)C(N)=O (stereo partly drawn) [4c] (H-[dK][Nva][Phe(4-NO2)][ξAla(4-thiazolyl)][pS]A[β3hS][βAla][Phe(4-NO2)]K-NH2; N-terminus and C-terminus assumed)
-8.1
